Biological target: Aromatase (Homo sapiens, UniProt P11511)
Sequence (P11511 whole entry): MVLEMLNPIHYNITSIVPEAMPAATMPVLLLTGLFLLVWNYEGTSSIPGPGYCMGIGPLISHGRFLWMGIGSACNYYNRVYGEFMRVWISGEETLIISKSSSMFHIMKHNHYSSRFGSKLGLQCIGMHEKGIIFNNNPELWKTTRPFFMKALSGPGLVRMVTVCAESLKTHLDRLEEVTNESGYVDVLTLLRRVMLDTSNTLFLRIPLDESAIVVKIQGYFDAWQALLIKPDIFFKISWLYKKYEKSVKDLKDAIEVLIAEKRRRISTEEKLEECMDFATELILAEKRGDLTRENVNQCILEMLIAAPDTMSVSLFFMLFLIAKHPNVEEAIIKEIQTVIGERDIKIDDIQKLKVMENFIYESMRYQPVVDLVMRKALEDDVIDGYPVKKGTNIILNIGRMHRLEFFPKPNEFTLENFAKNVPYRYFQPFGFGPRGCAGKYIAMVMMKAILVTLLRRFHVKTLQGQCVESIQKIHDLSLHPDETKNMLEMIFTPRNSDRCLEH
I'd be grateful if you could share measured pIC50 for these entries.
To interpret pIC50, take it as minus log10 of a concentration measured in moles per litre.

Response field pIC50 (Aromatase (Homo sapiens, UniProt P11511)) for item CO[C@H]1C[C@@H]2[C@H](CC[C@]3(C)C(=O)CC[C@@H]23)[C@@]2(C)C=CC(=O)C=C12 : 6.36

The recorded pIC50 with Aromatase (Homo sapiens, UniProt P11511) for CCC(=O)N1N=C2[C@H](C[C@H]3[C@@H]4CC[C@H]5C[C@@H](OC(=O)C(F)(F)F)CC[C@]5(C)[C@H]4CC[C@]23C)[C@H]1c1ccc(OC)cc1 was 5.18

Measured pIC50 for this entry C[C@]12CCC(=O)C(O)=C1CC[C@@H]1C2=CC[C@]2(C)C(=O)CC[C@@H]12 on Aromatase (Homo sapiens, UniProt P11511): 6.46

Lab note: compound C[C@]12CCC(=O)C=C1[C@@H](OCc1ccccc1)C[C@@H]1[C@@H]2CC[C@]2(C)C(=O)CC[C@@H]12 tested on Aromatase (Homo sapiens, UniProt P11511); recorded pIC50 was 5.60

Origin of the recorded values: ChEMBL document CHEMBL5241054
